# runDescription: Permeability from basolateral to apical side in human Caco2 cells
# Format: ADME, cell-based
# statedConditions: Caco-2, read-out: permeability
quantityMeasured: Papp B→A (×10⁻⁶ cm/s)
Numeric answer only, unit ×10⁻⁶ cm/s assumed.

Example cases with answers are listed next.
[
  {
    "molecule": "CC(C)C[C@H](OC(=O)C(C)(C)C)C(=O)NC1(C(=O)N[C@@H](CCc2ccccc2)c2nc(C3CC3)no2)CCCC1",
    "unitsText": "×10⁻⁶ cm/s",
    "Papp B→A": 10
  },
  {
    "molecule": "CCOC[C@H](CCc1ccccc1)NC(=O)C1(NC(=O)CC2C3CC4CC(C3)CC2C4)CCCC1 (some centres undefined)",
    "unitsText": "×10⁻⁶ cm/s",
    "Papp B→A": 20
  }
]

Data request: May I ask what Papp B→A has been recorded for CC(C)C[C@H](OC(=O)C(C)(C)C)C(=O)NC1(C(=O)N[C@@H](CCc2ccccc2)C(=O)OC(C)(C)C)CCCC1 ?
Data returned: 20

Data request: Then what about the molecule CCOC[C@H](CCc1ccccc1)NS(=O)(=O)c1cccc(NC(=O)[C@H](CC(C)C)OC(=O)C(C)(C)C)c1 ?
Data returned: 20
